apparent KD of MS2 coat protein: recorded values
Test system: MS2 coat protein
methodNotes: apparent KD of MS2 coat protein; designed switch direction (-1 OFF switch, 1 ON switch): -1; higher = weaker reporter binding
experimentalSetup: input ligand: FMN 200 uM
assayReadout: apparent KD of MS2 coat protein (nM)

biopolymersequence="CAGUACUGAGGAUAUACAUGAGGAUCACCCAUGUGCUUCAGCUAGGAUACUAGCAUUAGUAGAAGGCAGUACUG [Fiskers Ex 3 828 mod 13] (Eterna round: R96, puzzle: Exclusion 3)" assayreadout="apparent KD of MS2 coat protein" measurement=81
biopolymersequence="UAUAGGCUAGGAUAUACAACACUUGGUUCGAAUGUUUGGAGACAUGAGGAUCACCCAUGUAGAAGGAGCAUUUC [Leleis] (Eterna round: R96, puzzle: Exclusion 2)" assayreadout="apparent KD of MS2 coat protein" measurement=264
biopolymersequence="UCGUGAUUAGAGGAUAUAUUUUGAGUCAGAACAAUAGAAGGCUAAACAUGAGGAUCACCCAUGUAAAUGUGUAA [JR_Ex6_Sub061] (Eterna round: R97, puzzle: Exclusion 6)" assayreadout="apparent KD of MS2 coat protein" measurement=184

* * *

apparent KD of MS2 coat protein: recorded values
System: MS2 coat protein
methodNotes: apparent KD of MS2 coat protein; designed switch direction (-1 OFF switch, 1 ON switch): -1; higher = weaker reporter binding
experimentalSetup: input ligand: none
assayReadout: apparent KD of MS2 coat protein

biopolymersequence="AUUUUGUCAGGAUAUUGUUAGUUUAGUUGUUUGUAUUAGUUCGAGAAGGGACAUGAGGAUCACCCAUGUGAAAA [Ex4 #71] (Eterna round: R97, puzzle: Exclusion 4)" assayreadout="apparent KD of MS2 coat protein" measurement="37.2 nM"
biopolymersequence="CACCGUUACACAGGAUAUGUUACAUGAGGAUCACCCAUGUAAUAAAUGAGAAUUUCGAAUGUAAUACAGAAGGGUGGAAUCGGC [Ostricism 73 - Jieux - Exclusion NG 2] (Eterna round: R96, puzzle: Exclusion NG 2)" assayreadout="apparent KD of MS2 coat protein" measurement="28.4 nM"
biopolymersequence="GCCUUAUCUGUCAGGAUAUACAAUAAAAUAAUUAAGUAGAAGGGACAUGAGGAUCACCCAUGUACAUUACAUUG [alecazam26] (Eterna round: R97, puzzle: Brourd's mod of Exclusion 4)" assayreadout="apparent KD of MS2 coat protein" measurement="17.9 nM"
biopolymersequence="AAAUCGGUAGAGGAUAUUGUACAGGAAACGGUGCGAGAAGGUUACACAUGAGGAUCACCCAUGUUAAAUAGCGA [EX6 #54] (Eterna round: R97, puzzle: Exclusion 6)" assayreadout="apparent KD of MS2 coat protein" measurement="18.4 nM"
biopolymersequence="AACCUCGUAGCAGGAUAUUAGAGCUCCCGCAAAUGAGAAGGGCUACGAAACACUUGAGGAUCACCCAAGUACCGUGGUCCUCUA [Mutated MS2 EX1.8] (Eterna round: R96, puzzle: Exclusion NG 1)" assayreadout="apparent KD of MS2 coat protein" measurement="20.7 nM"

* * *

apparent KD of MS2 coat protein: recorded values
System: MS2 coat protein
methodNotes: apparent KD of MS2 coat protein; higher = weaker reporter binding
experimentalSetup: Eterna round: R107; input ligand: tryptophan 2.4 mM
assayReadout: apparent KD of MS2 coat protein (nM)

biopolymersequence="GGUCUCUGGAGCGAUACCAGCUUAAUUGUACUGGCCAGGUACAUGAGGAUCACCCAUGUAAGCCCUUGGCAGCGCUCCAGAGACC [#1 Exclusion - Theophylline B Attempt #12 (HarryS)]" measurementunits=nM measurement=11.6
biopolymersequence="GAGCUGAUGUAGAGAAUAAAUAUAAGAGAUACCAGUACAGAAAUGUACCCUUGGCAGCUCAACUUUACAUGAGGAUCACCCAUGU [Ex Theophylline A 18]" measurementunits=nM measurement=13.9
biopolymersequence=GGAUAGGACACGGCCGCCACUAUCUAGGAUACUAGCAACAUUUGGGUAUAUGAGGAUCACCCAUAUAGGACCGGGUGUCCUAUCG measurementunits=nM measurement=471
biopolymersequence="GUGUCCUAGUCGGCCGCCACUGGUACGAAUACCUUCACCCGUGUGCACAUGAGGAUCACCCAUGUCAGGACCGGGACUAGGGUGU [SSTryp B #24]" measurementunits=nM measurement=9.72
biopolymersequence="GCUACGUGCUGAAGGAGCGUGGACCUAAACAUGAGGAUCACCCAUGUCGUGUAGGCAGAUUCACAGGUAGGUCGCAGCACGUAGC [SSAB NP+V+V2 #14 Same Structure]" measurementunits=nM measurement=99.7
biopolymersequence="AACAUGAGGAUCACCCAUGUGUCCUCGAAACGAGGACCGGUACGGCCGCCACUCGAAAAGGUGUUGACGAAAAGUCAGCACCAAA [Mat - Exclusion - Trytophan A - D16]" measurementunits=nM measurement=820
biopolymersequence="GAGCUGAUGUAGAGCUAAUAUAAGAGAGAUACCAGUACAGAAAUGUACCCUUGGCAGCUCAACUUUACAUGAGGAUCACCCAUGU [Ex Theophylline A 21]" measurementunits=nM measurement=16
biopolymersequence="AAUUUGUCGGGUGAUACCAGCCUCGGCGCAUCUCGCGCUGAACAUGAGGAUCACCCAUGUGGCCCUUGGCAGCACAUGACAAAUC [Veerdira]" measurementunits=nM measurement=757
biopolymersequence="UGAUGGUACGGAAGGAGCGUGUAAGAACAAGAACAUGAGGAUCACCCAUGUAUUAAUUUAACACAGGUAGGUCGCCGUGUUAUUG [11.H]" measurementunits=nM measurement=16
biopolymersequence="AAACAGUCGGACAUGAGGAUCACCCAUGUGCGAGGACCGGUACGGCCGCCACUCGACAAGGGCGGUCCCGAAGCAAACAUACGCG [Enedquceor]" measurementunits=nM measurement=25.4
biopolymersequence="UGACAUUGCUGCGAUACCAGACAUGAGGAUCACCCAUGUACCAAGAAAACGUACAUAAAUGUCCCUUGGCAGCGCAGCAAUGUCU [MAT - Exclusion Theophlline B - Mod of Eli - D25]" measurementunits=nM measurement=806
biopolymersequence="GAUGGAAUAAGAGAUACCAGACACAAUUUAGCAUGUAUAUACAUGAGGAUCACCCAUGUAGUCCCUUGGCAGCUCUGGUUAGUGU [theeternabot_exclusion_MS2_Theo_B_48]" measurementunits=nM measurement=20.8
